target: Cytochrome P450 3A4 (Homo sapiens) (UniProt P08684); experiment: Cytochrome panel assay with activity outcomes; conditions: recombinant CYP, pro-luciferin dealkylation, luminescence, p450-cyp3a4; series mostly up to 57.1 µM; further: on the % scale 0 is the no-effect control and ±100 the full control effect
Sequence (P08684 whole entry, looked up): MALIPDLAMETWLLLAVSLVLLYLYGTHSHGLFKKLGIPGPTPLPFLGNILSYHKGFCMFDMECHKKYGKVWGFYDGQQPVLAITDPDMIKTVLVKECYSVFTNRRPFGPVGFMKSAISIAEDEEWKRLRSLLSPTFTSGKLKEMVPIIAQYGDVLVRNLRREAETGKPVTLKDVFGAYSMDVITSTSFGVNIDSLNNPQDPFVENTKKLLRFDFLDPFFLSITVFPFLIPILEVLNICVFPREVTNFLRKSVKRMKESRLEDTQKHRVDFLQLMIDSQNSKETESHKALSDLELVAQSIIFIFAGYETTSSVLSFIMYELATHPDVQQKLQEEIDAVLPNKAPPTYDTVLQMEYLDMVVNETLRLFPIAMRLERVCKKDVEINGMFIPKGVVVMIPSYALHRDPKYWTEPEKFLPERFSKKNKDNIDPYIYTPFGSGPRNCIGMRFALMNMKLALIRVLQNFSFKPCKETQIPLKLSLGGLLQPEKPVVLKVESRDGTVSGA
The whole screen tested about 16,000 compounds, of which about 5,100 (32%) were called active. Inconclusive results (about 25%) are left out. The list shows a part of the results.
Attribute: activity, negative = inhibition

[
  {
    "Molecule": "CC(C)NC(=O)C1CC(=O)N(c2ccc(F)c(Cl)c2)C1 (stereo not given)",
    "activity, negative = inhibition": "5.88% [at 2.29 µM] (inactive)"
  },
  {
    "Molecule": "Cc1ccc(N(Cc2ccccc2)Cc2ccccc2)cc1",
    "activity, negative = inhibition": "-22.6% [at 11.4 µM] (inactive)"
  },
  {
    "Molecule": "O=C(O)[C@H]1CCCC[C@@H]1c1c2ccc(=O)c(O)c-2oc2c(O)c(O)ccc12",
    "activity, negative = inhibition": "-5.27% [at 11.4 µM] (inactive)"
  },
  {
    "Molecule": "CC(=O)Nc1nc(NC(C)=O)c2[nH]c(CO)nc2n1",
    "activity, negative = inhibition": "-3.45% [at 11.4 µM] (inactive)"
  },
  {
    "Molecule": "O=S(=O)(O)[C@@H](c1ccccc1)[C@@H](O)c1ccccc1",
    "activity, negative = inhibition": "-6.22% [at 11.4 µM] (inactive)"
  },
  {
    "Molecule": "CCOC(=O)N/N=C1/C[C@@H](O)[C@@H](O)[C@@H]2[C@@H]3C(=O)N(CC)C(=O)[C@H]3CC[C@@H]12",
    "activity, negative = inhibition": "-14.4% [at 11.4 µM] (inactive)"
  },
  {
    "Molecule": "C=CCN(CC=C)C(=S)Nc1ccccc1",
    "activity, negative = inhibition": "-16.5% [at 2.29 µM] (inactive)"
  },
  {
    "Molecule": "O=C(NCCc1cccs1)C1CC(c2c(Cl)cccc2Cl)=NO1 (stereo not given)",
    "activity, negative = inhibition": "-24.1% [at 2.29 µM] (inactive)"
  },
  {
    "Molecule": "N=C(N)CCNC(=O)[C@@H]1CCC(N)=N1",
    "activity, negative = inhibition": "-7.02% [at 11.4 µM] (inactive)"
  },
  {
    "Molecule": "c1ccc(C[n+]2cccc(-c3cc4ccccc4[nH]3)c2)cc1",
    "activity, negative = inhibition": "-7.36% [at 11.4 µM] (inactive)"
  },
  {
    "Molecule": "O=C(CCc1ccccc1)NNC(=O)C1CCCCC1",
    "activity, negative = inhibition": "-0.205% [at 2.29 µM] (inactive)"
  },
  {
    "Molecule": "O=C(c1ccc([N+](=O)[O-])cc1)n1nc(-c2ccccc2)nc1NCc1ccccc1",
    "activity, negative = inhibition": "13.6% [at 2.29 µM] (inactive)"
  },
  {
    "Molecule": "CCN(Cc1cc(Cl)cc(C)c1O)Cc1c(O)ccc2ccccc12",
    "activity, negative = inhibition": "-15.9% [at 11.4 µM] (inactive)"
  },
  {
    "Molecule": "O=C1CC(c2ccccc2)Cc2nc(N3CCc4ccccc4C3)ncc21 (stereo not given)",
    "activity, negative = inhibition": "2.14% [at 2.29 µM] (inactive)"
  },
  {
    "Molecule": "Cc1ccc(C(=O)Nc2cc(Cl)ccc2OC(=O)c2ccc(C)cc2)cc1",
    "activity, negative = inhibition": "-3.15% [at 2.29 µM] (inactive)"
  }
]

These data points were gathered from PubChem BioAssay AID1851.
